procedure summary: gradient 5% acetonitrile 3 min, to 50% in 2 min, to 85% in 15 min, held 3 min, 100 µL/min
measurement setup: column: Zorbax Extend-C18 2.1 x 50 mm; eluents: water / acetonitrile, 0.1% formic acid
Classification by RP-LC retention time follows these ranges: band 1 = under 700 s, band 2 = from 700 s up to 900 s, band 3 = 900 s and over

>  <compound>
Cc1ccc(Cn2c(C)c3cnn(CC(=O)NCC4CCCO4)c(=O)c3c2C)cc1 (stereo unspecified)

>  <category label>
band 2

$$$$
>  <compound>
CCOC(=O)C1=C(CN2CCCCC2)NC(=O)NC1c1ccc(OC(C)C)cc1 (stereo unspecified)

>  <category label>
band 1

$$$$
>  <compound>
CCN1CCN(C(=O)c2n[nH]c3c2CC(C)CC3)CC1 (stereo unspecified)

>  <category label>
band 1

$$$$
>  <compound>
Cc1cc(C)c(NS(=O)(=O)c2cc(-c3nc(C)cs3)sc2C)c(C)c1

>  <category label>
band 3

$$$$
>  <compound>
CC(C)c1cc(C(=O)NC2CC2)nc2cc(-c3ccccn3)nn12

>  <category label>
band 2

$$$$
>  <compound>
CCn1c(=O)c(C)nc2cc(-c3noc(-c4ccc(Br)o4)n3)ccc21

>  <category label>
band 3

$$$$
>  <compound>
CCC(C)c1ccc(-c2csc(NC(C)=O)n2)cc1 (stereo unspecified)

>  <category label>
band 3

$$$$
>  <compound>
CCOC(=O)Cc1c(C)nc2cc(-c3ccc(OC)cc3)nn2c1C

>  <category label>
band 3

$$$$
>  <compound>
CCN(CCN(C)C)C(=O)c1cc2c(s1)-c1ccc(Cl)cc1S(=O)(=O)C2

>  <category label>
band 1

$$$$
>  <compound>
Cc1ccc(C)c(N2CCN(C(=O)C3CCN(S(=O)(=O)c4cn(C)cn4)CC3)CC2)c1

>  <category label>
band 2

$$$$
>  <compound>
CCC(C(=O)NC1CC1)n1nc(C)c2c(C)n(-c3ccc(C)cc3)nc2c1=O (stereo unspecified)

>  <category label>
band 2

$$$$
>  <compound>
COc1ccc(CC(=O)NC2CCN(c3nnc4ccccn34)CC2)cc1

>  <category label>
band 1

$$$$
>  <compound>
Cc1noc(-c2ccc(OC3CN(S(=O)(=O)c4cccc5nsnc45)C3)cc2)n1

>  <category label>
band 3

$$$$
>  <compound>
CCC(=O)Nc1ccc(-n2cnc(C(=O)NCC3CC3)c2)nc1

>  <category label>
band 1

$$$$
>  <compound>
CCc1nnc(-c2cc(C)n(CC(=O)Nc3cccc(SC)c3)c2C)o1

>  <category label>
band 2

$$$$
>  <compound>
COc1cccc(-c2noc(CN3C(=O)COc4ccc(C(C)(C)C)cc43)n2)c1

>  <category label>
band 3

$$$$
>  <compound>
O=c1c(=O)n(Cc2nc(-c3cccc(F)c3)no2)ccn1Cc1ccc(Cl)cc1

>  <category label>
band 3

$$$$
>  <compound>
COc1ccc(-c2oc3c(CC=C(C)C)c(O)cc(O)c3c(=O)c2O)cc1

>  <category label>
band 3

$$$$
>  <compound>
Cc1ccc2nc(Cl)cc(=O)n2c1

>  <category label>
band 2

$$$$
